This collection of values is drawn from patent US7618998B2.

Reported melting point values are given for each entry in this list.
PROPERTY_NAME: melting point

>>> print(df.to_string())
                                   molecule  property_name         result
0  COc1ccc(-c2coc3cc(OCC(O)CN4CCNCC4)ccc3c2=O)cc1OC (stereo not shown)  melting point    84 to 85 °C
1  COc1ccc(-c2coc3cc(OCC(O)CN4CCOCC4)ccc3c2=O)cc1OC (stereo not shown)  melting point  135 to 136 °C
2  COc1ccc(-c2coc3cc(OCC(O)CNC4CCCCC4)ccc3c2=O)cc1OC (stereo not shown)  melting point    70 to 71 °C
3  COc1ccc2c(=O)c(-c3ccc(OCC(O)CNC4CCCCC4)cc3)coc2c1 (stereo not shown)  melting point  125 to 126 °C
4  COc1ccc2c(=O)c(-c3ccc(OCC(O)CNC4CC4)cc3)coc2c1 (stereo not shown)  melting point  105 to 106 °C
5  COc1ccc2c(=O)c(-c3ccc(OCC4CO4)cc3)coc2c1 (stereo not shown)  melting point  153 to 154 °C
6  COc1ccc2c(=O)c(-c3ccc(OCC(O)CN4CCOCC4)cc3)coc2c1 (stereo not shown)  melting point  117 to 118 °C
